B1: LINE1-full (parent)
chain: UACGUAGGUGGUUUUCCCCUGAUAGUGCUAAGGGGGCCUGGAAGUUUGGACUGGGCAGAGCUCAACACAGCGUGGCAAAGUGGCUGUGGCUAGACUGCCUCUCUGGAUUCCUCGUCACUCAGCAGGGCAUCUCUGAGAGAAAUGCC

# Variants of: B1
# Assay explanation: self-cleavage, relative activity (ratio to wild type); higher = more cleavage; in vitro, sequencing; the parent is a self-cleaving ribozyme
Label 1.0 when self-cleavage is at or above 1; anything below gets 0.0.

Here's what some known entries look like.
[[record]]
mutation_label = "U73G U119C"
assigned_class = 1.0

[[record]]
mutation_label = "A57G A129G"
assigned_class = 0.0

[[record]]
mutation_label = "U52A G88A"
assigned_class = 0.0

[[record]]
mutation_label = "A65G U108A"
assigned_class = 0.0


*Q* Is it the case that A64C U85C has self-cleavage reaching or exceeding 1?
*A* 0.0

*Q* Next variant up: G41A U143G
*A* 1.0

*Q* Next variant up: A30G A138G
*A* 0.0

*Q* Next variant up: U9A A77U
*A* 0.0

*Q* Next variant up: C110A U112C
*A* 1.0

*Q* Next variant up: C51U A67G
*A* 0.0

*Q* Next variant up: U12C C19A
*A* 0.0
